Assay Comment: amyloid nucleation score (Sup35N fusion, yeast selection) (log enrichment); library NNK3; higher = more nucleation; inactive = no reads after selection;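 further: zero at mode of non-aggregating sequences after 7 days selection at 30°C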
Property Measured: amyloid nucleation score

[
  {
    "Sequence": "LCVSCIDSFLGEMVFGLEVI",
    "Assay Result": "inactive"
  },
  {
    "Sequence": "LAPGRLCLMGIKRTTSWWSS",
    "Assay Result": "inactive"
  },
  {
    "Sequence": "AGLLDMARSVDCSGLGYGFF",
    "Assay Result": -0.82
  },
  {
    "Sequence": "ILFTYCSYINREVLRWMQDS",
    "Assay Result": "inactive"
  },
  {
    "Sequence": "KRFTLFSMIYGRV",
    "Assay Result": "inactive"
  },
  {
    "Sequence": "QSFLDTSPHLDHVVNNSIKH",
    "Assay Result": "inactive"
  },
  {
    "Sequence": "TMLDLGDKYVMLFEQVDSFF",
    "Assay Result": "inactive"
  },
  {
    "Sequence": "RDVIRRVVRMHLQLYMFMVG",
    "Assay Result": -0.135
  },
  {
    "Sequence": "IYRVYYDSTLGMCPAWGFYK",
    "Assay Result": "inactive"
  },
  {
    "Sequence": "KAFFESMFWV",
    "Assay Result": "inactive"
  }
]

Query string: Which amyloid nucleation score is reported for this sequence? GIDDDCARHIYWGRFLIGSC
Result string: -0.241

Query string: Which amyloid nucleation score is reported for this sequence? KLYWNHAQYPNTTVSTVKFS
Result string: -0.706

Query string: Which amyloid nucleation score is reported for this sequence? VHELIDHKMKMIGLVFGLSI
Result string: inactive

* * *

Assay Comment: amyloid nucleation score (Sup35N fusion, yeast selection) (log enrichment); library NNK1; higher = more nucleation; inactive = no reads after selection
Everything with amyloid nucleation score lower than 0.1 is false (0); everything else, including exactly 0.1, is true (1).

[
  {
    "Substance": "CYHSKFAVAYQSRICWPWRD",
    "Qualitative Label": "true (1)"
  },
  {
    "Substance": "LYIGIPYVGVWNL",
    "Qualitative Label": "true (1)"
  },
  {
    "Substance": "VWTSWDGRSLIAEWVCYLE",
    "Qualitative Label": "true (1)"
  },
  {
    "Substance": "IYISYIRRRFVGLFST",
    "Qualitative Label": "false (0)"
  },
  {
    "Substance": "PLTGAGFTIEML",
    "Qualitative Label": "false (0)"
  },
  {
    "Substance": "SRPDVLYCDIFHFRHQILSF",
    "Qualitative Label": "false (0)"
  },
  {
    "Substance": "KEDAIIWVYNKSVSMRIFVQ",
    "Qualitative Label": "false (0)"
  },
  {
    "Substance": "FLWVTWYFSTVFYVNWALE",
    "Qualitative Label": "true (1)"
  },
  {
    "Substance": "STVLQWIIGRPLYARDSLAS",
    "Qualitative Label": "false (0)"
  },
  {
    "Substance": "MLNVEGNTLKSWIYGRHLVP",
    "Qualitative Label": "false (0)"
  }
]

Query string: Is reported amyloid nucleation score greater than or equal to 0.1 here: TIGFTHYCCSFKS
Result string: false (0)

Query string: Is reported amyloid nucleation score greater than or equal to 0.1 here: KLYGVSCAPLSEDHCLGKAA
Result string: false (0)
